# System: rhinovirus serotype 89
# Method Notes: Protection of HeLa cells from rhinovirus-induced cytopathogenicity (MTT), serotype 89
# Assay Conditions: Enterovirus, 72 h, read-out: MIC, serotype 89
Metric: pEC50
Just so you know, pEC50 here is -log10 of the concentration in molar units; reply with that number alone.

Cc1cc(CCCCCCCOc2ccc(C3=NCCO3)cc2)on1 [WIN 51711, reference compound] | 6.05
CCOC(=O)c1ccc(OCCCCC(=O)c2cc(C=O)n(C)c2)cc1 | 6.70

response.value for Cc1ccc(C(=O)CCCCOc2ccc(C3=NCCO3)cc2)s1 (field: pEC50) = 6.52

response.value for CCOC(=O)c1ccc(OCCCCC(=O)c2ccc(Cl)s2)cc1 (field: pEC50) = 6.52

response.value for Cc1csc(C(=O)CCCCOc2ccc(C3=NCCO3)cc2)c1 (field: pEC50) = 5.54

response.value for CCOC(=O)c1ccc(OCCCCC(=O)c2ccc(C)s2)cc1 (field: pEC50) = 6.52

The measurements presented in this section are drawn from patent US5278184A.
